Known GI50 of a selection of compounds
- Tested on: HCT-116
- Test Protocol: NCI tumour cell line growth inhibition, 48 h
Active and inactive are the calls of the source. No stated cut-off is given here; in the data, active = GI50 up to about 1.1 µM and inactive = higher.

## Input Can you look up the measured GI50 of `CN(CCNC(=O)c1nn(-c2ccc(Cl)cc2Cl)c2c1Cc1ccccc1-2)CCNC(=O)c1nn(-c2ccc(Cl)cc2Cl)c2c1Cc1ccccc1-2` for me?
## Output 2.1 µM (inactive)

## Input Can you look up the measured GI50 of C=C1CC(c2ccc(O)c(OC)c2)Oc2c(OC)cccc21 (stereo not given) for me?
## Output 31.2 µM (inactive)

## Input Can you look up the measured GI50 of `CCOC(=O)CC1=N/C(=N/c2cc(Cl)ccc2Cl)SC1` for me?
## Output 97.9 µM (inactive)

## Input Can you look up the measured GI50 of `Cc1cc2c3ccccc3n(C)c2c2c1C(=O)c1ccccc1C2=O` for me?
## Output 14.8 µM (inactive)

## Input Can you look up the measured GI50 of `CCOC(=O)Cc1csc(Nc2ccc(OCC)cc2)n1` for me?
## Output > 100 µM (inactive)

====

- Test system: SK-OV-3
- Test Protocol: NCI tumour cell line growth inhibition, 48 h
The source made the active and inactive calls. Cut-off read from the data, not from the text of the source: active = GI50 up to about 1.1 µM and inactive = higher.
# valid calls are active, inactive; nothing else

Observe how each entry below is paired with its result.
- COc1ccc(C2(Cl)C(Cl)(C(F)(F)F)C2(Cl)C(F)(F)F)cc1 (stereo not drawn): inactive
- CC(C)=CCCc1c(C)ccc2c1C(=O)C(=O)C(C(C)C)=C2: inactive
- CC1=NN(c2cccc(S(=O)(=O)O)c2)C2(C1)C(Cl)C(=O)N2c1nc2ccccc2s1 (stereo not drawn): inactive
- C/C=C/C=N/N(c1nnc(-c2ccccc2)c(-c2ccccc2)n1)S(=O)(=O)c1ccc(C)cc1: inactive
- CC(C)(C)OC1=C(OC(C)(C)C)C(O)(c2ccc(Cl)cc2)C1=O (stereo not drawn): inactive
- O=C(O)CN1C(=O)OC(c2ccccc2)C1=O (stereo not drawn): inactive
- CC(O)C1(CNc2cc(Cl)nc(N)n2)CCCC1 (stereo not drawn): inactive
- CC1(C)CCc2cc3c(cc2O1)OCC1c2cc4c(cc2OC31)OCO4 (stereo not drawn): inactive
- CC(C)=CCC[C@]1(C)C=Cc2c(O)c3c(c(CC=C(C)C)c2O1)O[C@]12C(=C[C@@H]4CC1C(C)(C)O[C@@]2(C/C=C(/C)C(=O)O)C4=O)C3=O: inactive
- COc1ccc(C2CC(c3ccc4ccccc4c3O)=NN2)cc1OC (stereo not drawn): inactive

## Input What did this assay record as the result for CC(=O)Nc1ccc(C(=O)NN2C(=O)C(Cl)C2c2ccc(Cl)cc2)cc1 (stereo not drawn) ?
## Output inactive

## Input What did this assay record as the result for `CCOC(=O)CC1=N/C(=N/c2cc(Cl)ccc2Cl)SC1` ?
## Output inactive

## Input What did this assay record as the result for `COc1ccccc1NC(=S)N/N=C/c1ccccn1` ?
## Output active

## Input What did this assay record as the result for C=C1CC(c2ccc(O)c(OC)c2)Oc2c(OC)cccc21 (stereo not drawn) ?
## Output inactive

## Input What did this assay record as the result for `NS(=O)(=O)c1cccc(NC(=S)NC(=O)Nc2ccc(Cl)c(Cl)c2)c1` ?
## Output inactive

## Input What did this assay record as the result for CCN1CCC(O)(c2ccc(OC)cc2)C(C(=O)c2ccc(OC)cc2)C1 (stereo not drawn) ?
## Output inactive

## Input What did this assay record as the result for `COc1ccc(C2=C3c4cc(OC)c(OC)cc4CCN3C(=S)SS2)cc1OC` ?
## Output inactive

## Input What did this assay record as the result for `CN(C)c1c([O-])c(=[N+](C)C)c1=O` ?
## Output inactive

## Input What did this assay record as the result for CCCCC/C=C1\CCC(CN(C)C)C1=O (stereo not drawn) ?
## Output inactive

## Input What did this assay record as the result for `S=C(S)NCCN1CCNCC1` ?
## Output inactive

## Input What did this assay record as the result for `O=C(/C(=C/c1ccc(O)cc1)c1ccccc1)c1ccccc1` ?
## Output inactive

## Input What did this assay record as the result for `COc1cc(/C=C/c2ccc(C)cc2)cc(OC)c1OC` ?
## Output inactive

## Input What did this assay record as the result for `COc1cccc(Nc2nc(-c3cccs3)nc3ccc(Br)cc23)c1` ?
## Output inactive

====

- Test system: UO-31
- Test Protocol: NCI tumour cell line growth inhibition, 48 h
Calls of active or inactive are those of the source. Rule as the data show it: active = GI50 up to about 1.1 µM and inactive = higher.
Result Type: GI50

- Brc1ccc(-c2ccc(-c3ccc(Br)s3)s2)s1: > 100 µM (inactive)
- O=C(Nc1cc(C(F)(F)F)ccc1Cl)C(=O)C(C(=O)c1ccc2ccccc2c1)C1OC(=O)c2ccccc21 (stereo not given): 12.4 µM (inactive)
- CC(O)C1(CNc2cc(Cl)nc(N)n2)CCCC1 (stereo not given): > 100 µM (inactive)
- COC1CC(OS(=O)(=O)c2ccc(C)cc2)C(OC(=O)c2ccccc2)C(C)O1 (stereo not given): > 10 µM (inactive)
- COC(=O)C(C(=O)C(=O)Nc1c(Cl)cc([N+](=O)[O-])cc1Cl)c1nc2cc(C)c(C)cc2nc1O (stereo not given): > 100 µM (inactive)
- CN(C)c1ccc(C(=N/N=C2\C(=O)Nc3ccccc32)c2ccc(N(C)C)cc2)cc1: 2.01 µM (inactive)

Alright, here's another compound for you.
## Input Can you look up the measured GI50 of `CC(C)(C)C#CI1OC(=O)c2ccccc21` for me?
## Output 4.41 µM (inactive)

====

- System: SK-MEL-2
- Test Protocol: NCI tumour cell line growth inhibition, 48 h
Activity calls are given as the source filed them. Cut-off read from the data, not from the text of the source: active = GI50 up to about 1.1 µM and inactive = higher.
# valid calls are yes (1) (active), no (0) (inactive); nothing else

Observe how each entry below is paired with its result.
• C[C@H](CCC(=O)O)[C@H]1CC[C@H]2[C@@H]3[C@H](O)C[C@@H]4C[C@H](O)CC[C@]4(C)[C@H]3CC[C@]12C = no (0)
• CC1(C)C[C@H]2C=C(C=O)[C@]34C[C@]3(C(=O)OC4O)[C@H]2C1 (stereo not given in full) = no (0)
• CCOP(=O)(OCC)C1C(CO)OC(n2ccc(=O)[nH]c2=O)C1O (stereo not given) = no (0)
• C/C=C(/C)C(=O)O[C@H]1C(C)=C[C@]23C(=O)[C@@H](C=C(COC(C)=O)[C@@H](O)[C@]12O)[C@H]1[C@@H](C[C@H]3C)[C@@]1(C)OC(=O)/C(C)=C\C = no (0)
• O=C(CSCC(=O)N/N=C\c1cccc([N+](=O)[O-])c1)N/N=C\c1cccc([N+](=O)[O-])c1 = no (0)

## Input What did this assay record as the result for `Cc1cc2c(Br)cc(Br)c(O)c2nc1C(=O)c1ccccc1` ?
## Output no (0)

## Input What did this assay record as the result for OC1C2[C@@H](O)CCCN2C[C@@H](O)[C@H]1O (stereo not given in full) ?
## Output no (0)

## Input What did this assay record as the result for Nc1ccc(C(=O)NN2C(=O)C(Cl)C2c2ccccc2O)cc1 (stereo not given) ?
## Output no (0)

## Input What did this assay record as the result for `Cc1n[nH]c(=O)n1/N=C\c1ccccc1` ?
## Output no (0)

## Input What did this assay record as the result for `CCCCCCCCCCCCCB(O)O` ?
## Output no (0)

## Input What did this assay record as the result for `COc1cc(OC)c2nc(C)c3c(c2c1)OCC3` ?
## Output no (0)

## Input What did this assay record as the result for COc1ccc2c(c1)CC1c3c(cc4c(c3-2)OCO4)CCN1C (stereo not given) ?
## Output no (0)

## Input What did this assay record as the result for `O=S(=O)(O)c1ccc(-c2c3nc(c(-c4ccc(S(=O)(=O)O)cc4)c4ccc([nH]4)c(-c4ccc(S(=O)(=O)O)cc4)c4nc(c(-c5ccc(S(=O)(=O)O)cc5)c5ccc2[nH]5)C=C4)C=C3)cc1` ?
## Output no (0)

## Input What did this assay record as the result for `CCOC(=O)c1ccc(-c2cccs2)[nH]1` ?
## Output no (0)

## Input What did this assay record as the result for `Cc1cc2c(cc1-c1cc3c(cc1C)C(C(C)C)=C(O)C(=O)/C3=C\Nc1c3ccccc3nc3ccccc13)/C(=C/Nc1c3ccccc3nc3ccccc13)C(=O)C(O)=C2C(C)C` ?
## Output no (0)

====

Known GI50 of a selection of compounds
- Test system: HCT-116
- Test Protocol: NCI tumour cell line growth inhibition, 48 h
Activity calls are given as the source filed them. Cut-off read from the data, not from the text of the source: active = GI50 up to about 1.1 µM and inactive = higher. Square brackets hold non-standard residues; d marks the D form. Peptide text beside a SMILES is read from it. pGlu = O=C1CC[CH](C(=O)O)N1

The examples below pair each entry with its known result.
* CC(=O)N1OC(C)CC1Nc1ccc(Br)cc1 (stereo not given) | 4.03 µM (inactive)
* COc1cc2c3c(cc(Cl)nc3c1OC)C(O)(CC(C)=O)C(=O)N2 (stereo not given) | 17.3 µM (inactive)
* CC(NC(=O)C(Cc1c[nH]cn1)NC(=O)C1CCC(=O)N1)C(N)=O (stereo not drawn) ([pGlu]-His-Ala-NH2; configuration not given here) | > 100 µM (inactive)
* CCCCCCCC/C=C\CCCCCCC/C=C1/C[C@](/C=C/C(=O)OC)(CO)OC1=O | 4.56 µM (inactive)
* C/C(=N\NC(=N)N)C(CN(C)C)C(c1ccccc1)c1c(O)c2ccccc2oc1=O (stereo not given) | > 100 µM (inactive)
* C(/C=C/N1CCCC1)=C\c1nc(N2CCCC2)c2ccccc2n1 | 19.7 µM (inactive)
* COc1ccc(C2(Cl)C(Cl)(C(F)(F)F)C2(Cl)C(F)(F)F)cc1 (stereo not given) | 11.7 µM (inactive)
* COc1ccc(C2=C3SC=c4ccccc4=C3ON=C2c2ccccc2)cc1 | 57.4 µM (inactive)
* CCOC(=N)CC(=O)Nc1ccc(Cl)cc1 | > 100 µM (inactive)

Alright, here's another compound for you.
## Input Record c1ccc(C(NCC2CCO2)(c2ccccc2)c2ccccc2)cc1 (stereo not given) : what is its GI50 with HCT-116?
## Output 21.5 µM (inactive)
